assay: Plasma incubations (human plasma stability); assay type: in vitro ADME; details: 37° C., 25 μM, percent remaining at 1 hour
measureName: Human Plasma Stability % rem. @ 1 h (%)

CO[C@@H]1CN(C(=O)[C@@H](NC(=O)c2ccc(-c3csc(N4CCN(C)CC4)n3)cc2)C2CCCC2)[C@@H]2C(=O)CO[C@@H]21: 98.2
CN1CCN(c2nc(-c3ccc(C(=O)N[C@@H](CC(C)(C)C)C(=O)N4CC[C@H]5OCC(=O)[C@H]54)cc3)cs2)CC1: 91.9
CO[C@H]1CN(C(=O)[C@@H](NC(=O)c2ccc(-c3csc(N4CCN(C)CC4)n3)cc2)C2CCCC2)[C@@H]2C(=O)CO[C@H]12: 100
CN1CCN(c2nc(-c3ccc(C(=O)N[C@H](C(=O)N4CC[C@H]5OCC(=O)[C@H]54)C4CCCC4)cc3)cs2)CC1: 82.5
CC(C)C[C@H](NC(=O)c1ccc(C(C)(C)C)cc1)C(=O)N1CC[C@H]2OCC(=O)[C@H]21 [Prior art compound 23, reference compound]: 75
CC(C)C[C@H](NC(=O)c1ccc(-c2csc(N3CCN(C)CC3)n2)cc1)C(=O)N1CC[C@H]2OCC(=O)[C@H]21: 92.6
